// LipE lookup, one value per entry
# SUBJECT_OF_TEST: RIPK2 (Homo sapiens, UniProt O43353)
# Construct: purchased Promega
# Sequence (O43353 whole entry): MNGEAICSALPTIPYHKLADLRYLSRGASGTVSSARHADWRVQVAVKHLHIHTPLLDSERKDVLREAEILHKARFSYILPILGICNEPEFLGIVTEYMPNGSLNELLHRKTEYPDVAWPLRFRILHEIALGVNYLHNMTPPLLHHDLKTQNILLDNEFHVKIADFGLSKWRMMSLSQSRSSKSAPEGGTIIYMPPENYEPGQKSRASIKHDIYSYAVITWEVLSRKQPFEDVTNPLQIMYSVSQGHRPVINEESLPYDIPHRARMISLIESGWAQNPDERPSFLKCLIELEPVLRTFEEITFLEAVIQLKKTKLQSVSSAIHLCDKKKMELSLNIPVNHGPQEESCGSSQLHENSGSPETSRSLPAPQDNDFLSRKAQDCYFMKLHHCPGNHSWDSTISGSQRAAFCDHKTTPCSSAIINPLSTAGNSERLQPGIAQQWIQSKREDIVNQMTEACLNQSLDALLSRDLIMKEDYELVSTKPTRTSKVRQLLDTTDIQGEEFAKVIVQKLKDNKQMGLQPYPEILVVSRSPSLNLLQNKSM
# ASSAY_DETAILS: Lipophilic ligand efficiency (LipE)
# CONDITIONS: LipE = pIC50 − ClogP
Give the value as a plain number.

{"columns": ["CHEMICAL_STRUCTURE", "LipE"],
 "data": [
  ["c1cc(-c2ccc3nccc(Nc4ccc5scnc5c4)c3c2)ccn1", 4.40]
]}

What measured LipE goes with "Brc1ccc2nccc(Nc3ccncc3)c2c1" ? 3.24

Would you mind doing "COc1cc(Nc2ccnc3ccc(Br)cc23)cc(OC)c1OC" as well? 3.63

Next compound: "Cn1cc(-c2ccc3nccc(Nc4ccc5scnc5c4)c3c2)cn1" 3.08

====

# SUBJECT_OF_TEST: RIPK1 (Homo sapiens, UniProt Q13546)
# Sequence (Q13546 1-671): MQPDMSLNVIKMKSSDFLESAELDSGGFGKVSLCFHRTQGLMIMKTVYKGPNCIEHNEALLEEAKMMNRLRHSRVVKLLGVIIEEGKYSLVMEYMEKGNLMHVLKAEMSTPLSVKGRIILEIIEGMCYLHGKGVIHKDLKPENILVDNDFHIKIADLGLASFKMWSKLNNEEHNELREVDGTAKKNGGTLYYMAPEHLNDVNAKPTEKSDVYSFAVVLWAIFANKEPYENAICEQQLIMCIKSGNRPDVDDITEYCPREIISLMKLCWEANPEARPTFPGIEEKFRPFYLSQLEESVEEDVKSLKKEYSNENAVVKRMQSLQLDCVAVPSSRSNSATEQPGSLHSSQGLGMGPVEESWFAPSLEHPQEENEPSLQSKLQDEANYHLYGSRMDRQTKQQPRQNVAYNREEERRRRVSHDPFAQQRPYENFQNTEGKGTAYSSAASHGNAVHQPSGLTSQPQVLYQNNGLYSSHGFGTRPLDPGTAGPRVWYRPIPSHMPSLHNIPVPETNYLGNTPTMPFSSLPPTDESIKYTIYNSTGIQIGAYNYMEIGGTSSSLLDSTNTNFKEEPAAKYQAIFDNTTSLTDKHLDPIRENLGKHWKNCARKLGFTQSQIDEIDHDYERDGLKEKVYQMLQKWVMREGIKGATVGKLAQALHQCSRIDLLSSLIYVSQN
# ASSAY_DETAILS: RIPK1 inhibition rate at 1 µM
# Format: biochemical
PARAMETER: RIPK1 IR@1µM (%)

Under RIPK1 (Homo sapiens, UniProt Q13546): RIPK1 IR@1µM (%) value of "Cc1n[nH]cc1-c1ccc2nccc(Nc3ccc4scnc4c3)c2c1" ? <1%

====

# SUBJECT_OF_TEST: RIPK2 (Homo sapiens)
# Construct: purchased Promega
# ASSAY_DETAILS: RIPK2 kinase inhibition assay (ADP-Glo)
# Type: biochemical
# CONDITIONS: mean ± SD from two separate experiments
pIC50: −log10 of the molar value.
Quick rule: pIC50 of at least 8 means label 1, below that means label 0.

{"columns": ["COMPOUND", "SUBJECT_OF_TEST", "ANSWER_LABEL"],
 "data": [
  ["COc1cc(Nc2ccnc3ccc(-c4cccnc4)cc23)cc(OC)c1OC", "RIPK2 (Homo sapiens)", "label 1"],
  ["COc1cc(Nc2ccnc3ccc(-c4c[nH]nc4C)cc23)cc(OC)c1OC", "RIPK2 (Homo sapiens)", "label 0"]
]}

Let's switch to this compound now.
Check the entry "Brc1ccc2nccc(Nc3ccc4ncsc4c3)c2c1" : does pIC50 equal or exceed 8? label 0

====

# LipE listing for each entry below
# SUBJECT_OF_TEST: RIPK2 (Homo sapiens, UniProt O43353)
# Construct: purchased Promega
# ASSAY_DETAILS: Lipophilic ligand efficiency (LipE)
# CONDITIONS: LipE = pIC50 − ClogP

{"columns": ["CHEMICAL_STRUCTURE", "RESULT"],
 "data": [
  ["Cc1cscc1-c1ccc2nccc(Nc3ccc4scnc4c3)c2c1", 2.37],
  ["COc1cc(Nc2ccnc3ccc(-c4cncnc4)cc23)cc(OC)c1OC", 4.58],
  ["c1cc(Nc2ccc3scnc3c2)c2cc(-c3ccc4[nH]ccc4c3)ccc2n1", 3.87],
  ["c1ncc(-c2ccc3nccc(Nc4ccc5scnc5c4)c3c2)cn1", 2.80]
]}

Would you kindly look at the next entry?
// lookup LipE for "COc1cc(Nc2ccnc3ccc(-c4cccnc4)cc23)cc(OC)c1OC" 4.30

====

The entries below come with measured RIPK1 IR@1µM (%) values attached.
# SUBJECT_OF_TEST: UniProtKB Q13546
# ASSAY_DETAILS: RIPK1 inhibition rate at 1 µM
# Format: biochemical

Observe how each entry below is paired with its result.
{"columns": ["CHEMICAL_STRUCTURE", "PARAMETER", "RESULT"],
 "data": [
  ["COc1cc(Nc2ccnc3ccc(-c4cccnc4)cc23)cc(OC)c1OC", "RIPK1 IR@1µM (%)", "19%"],
  ["COc1cc(Nc2ccnc3ccc(-c4cnn(C)c4)cc23)cc(OC)c1OC", "RIPK1 IR@1µM (%)", "<1%"],
  ["c1cncc(-c2ccc3nccc(Nc4ccc5scnc5c4)c3c2)c1", "RIPK1 IR@1µM (%)", "<1%"]
]}

Endpoint output: RIPK1 IR@1µM (%) of "c1cc(-c2ccc3nccc(Nc4ccc5scnc5c4)c3c2)ccn1" . Value? <1%

====

Attribute: pIC50
# SUBJECT_OF_TEST: RIPK2 (Homo sapiens, UniProt O43353)
pIC50 is a log-scale quantity: -log10 of the concentration expressed in molar.

Field: example entries. Status: answers known.
{"columns": ["MOLECULE", "pIC50"],
 "data": [
  ["COc1cc(Nc2ccnc3ccc(-c4cnn(C)c4)cc23)cc(OC)c1OC [Compound 36]", 8.14],
  ["Brc1ccc2nccc(Nc3ccc4cn[nH]c4c3)c2c1 [Compound 12]", 7.65],
  ["c1cc(Nc2ccc3scnc3c2)c2cc(-c3ccc4[nH]ccc4c3)ccc2n1 [Compound 25]", 7.95]
]}

Then there is this molecule:
Please report the recorded pIC50 for c1ccc2c(-c3ccc4nccc(Nc5ccc6scnc6c5)c4c3)cncc2c1 [Compound 29] . 7.76

====

# SUBJECT_OF_TEST: UniProt O43353
PARAMETER: log10 IC50 (log10 of the value in nM)
A difference of one corresponds to tenfold IC50; all values are log10 with IC50 in nM.

Look over these answered cases.
{"columns": ["COMPOUND", "RECORDED_NUMBER"],
 "data": [
  ["Cc1nn(C)cc1-c1ccc2nccc(Nc3ccc4scnc4c3)c2c1", 0.98],
  ["COc1cc(Nc2ccnc3ccc(Br)cc23)cc(OC)c1OC", 1.03],
  ["c1cc(Nc2ccc3scnc3c2)c2cc(-c3ccnc4[nH]ccc34)ccc2n1", 0.86],
  ["Cc1cscc1-c1ccc2nccc(Nc3ccc4scnc4c3)c2c1", 1.29],
  ["c1cc(-c2ccc3nccc(Nc4ccc5scnc5c4)c3c2)c2cc[nH]c2c1", 0.97]
]}

Look at this compound and give its reported log10 IC50. "COc1cc(Nc2ccnc3ccc(-c4cncnc4)cc23)cc(OC)c1OC" 1.04

"c1ccc2ncc(-c3ccc4nccc(Nc5ccc6scnc6c5)c4c3)cc2c1" ? 1.62

Also need "c1cncc(-c2ccc3nccc(Nc4ccc5scnc5c4)c3c2)c1" , thanks. 0.78

Field entry: "CC(=O)c1cccc(Nc2ccnc3ccc(Br)cc23)c1" 1.97

====

Below, each entry is listed with its recorded pIC50.
# SUBJECT_OF_TEST: RIPK2 (Homo sapiens, UniProt O43353)
The value called pIC50 is obtained by taking minus log10 of the concentration in mol/L.

Reference set (8 entries):
{"columns": ["COMPOUND", "RECORDED_NUMBER"],
 "data": [
  ["Brc1ccc2nccc(Nc3cccnc3)c2c1", 6.82],
  ["COc1cc(Nc2ccnc3ccc(-c4cccc5[nH]ncc45)cc23)cc(OC)c1OC", 8.15],
  ["Cn1cc(-c2ccc3nccc(Nc4ccc5scnc5c4)c3c2)cn1", 7.79],
  ["COc1cc(Nc2ccnc3ccc(-c4ccncc4)cc23)cc(OC)c1OC", 8.09],
  ["CC(C)(C)S(=O)(=O)c1cc2c(Nc3ccc4scnc4c3)ncnc2cc1OCCO [Compound P5, reference compound]", 8.59],
  ["Brc1ccc2nccc(Nc3ccc4scnc4c3)c2c1", 7.91],
  ["COc1cc(Nc2ccnc3ccc(-c4cn[nH]c4)cc23)cc(OC)c1OC", 7.84],
  ["c1ccc(-c2ccc3nccc(Nc4ccc5scnc5c4)c3c2)cc1", 7.62]
]}

Endpoint output: pIC50 of "COc1cc(Nc2ccnc3ccc(-c4ccccn4)cc23)cc(OC)c1OC" . Value? 7.91

Also "COc1cccc(Nc2ccnc3ccc(Br)cc23)c1" ? 7.26

Field entry: "Cc1n[nH]cc1-c1ccc2nccc(Nc3ccc4scnc4c3)c2c1" 8.39

Another compound to check: "Cc1cnn(C)c1-c1ccc2nccc(Nc3ccc4scnc4c3)c2c1" 7.72

"c1cc(Nc2ccc3scnc3c2)c2cc(-c3cn[nH]c3)ccc2n1" ? 8.09

Then "c1cc(-c2ccc3nccc(Nc4ccc5scnc5c4)c3c2)ccn1" ? 8.29

Same question for "Brc1ccc2nccc(Nc3ccc4[nH]ccc4c3)c2c1" please. 6.93
